The reported measurements were obtained from patent US6956040B2.

Below, each entry is listed alongside its reported Geometric Mean of in vitro activity (MIC).
- Test system: S. pneumoniae
- procedure.details: Summary of in vitro activity (MIC) against S. pneumoniae
- Type: cell-based, Streptococcus pneumoniae
- stated.conditions: S. pneumoniae
Entry rule: numbers only, all in µg/mL.

Illustrative cases are given below, each with its answer.
{"compound": "CC(=O)NC[C@H]1CN(c2ccc(N3CCN(Cc4ccc([N+](=O)[O-])o4)CC3)c(F)c2)C(=O)O1", "readout.value": 1.04}
{"compound": "CC(=O)NC[C@H]1CN(c2ccc(N3CCC(N(C)C(=O)c4ccc([N+](=O)[O-])o4)CC3)c(F)c2)C(=O)O1", "readout.value": 0.96}
{"compound": "CC(=O)NC[C@H]1CN(c2ccc(N3CCC(N(C)Cc4ccc([N+](=O)[O-])o4)CC3)c(F)c2)C(=O)O1", "readout.value": 1.41}
{"compound": "CC(=O)NC[C@H]1CN(c2ccc(N3CCN(C(=O)c4ccc([N+](=O)[O-])o4)CC3)c(F)c2)C(=O)O1", "readout.value": 1.27}
{"compound": "CC1(C)S[C@@H]2[C@H](NC(=O)Cc3ccccc3)C(=O)N2[C@H]1C(=O)O [Penicillin G, reference compound]", "readout.value": 2.16}

For reference, reported Geometric Mean of in vitro activity (MIC) for CC(=O)NC[C@H]1CN(c2ccc(N3CC4C(CN(C)Cc5ccc([N+](=O)[O-])o5)C4C3)c(F)c2)C(=O)O1 (stereo partly drawn) stands at 0.71

====

Below, each entry is listed alongside its reported MIC.
- Test system: S. pyogenes 19615
- procedure.details: MIC, agar incorporation method
- Format: cell-based, Streptococcus pyogenes
- stated.conditions: S. pyogenes 19615; agar incorporation
- Experimental: The compounds of the invention display antibacterial activity when tested by the agar incorporation method. […] Briefly, the compounds were dissolved in DMSO and doubling dilution of the compounds were incorporated into Meuller Hilton agar before solidification. […] The concentration showing no growth of the inoculated culture was recorded as the MIC. […]
Entry rule: numbers only, all in µg/mL.

Illustrative cases are given below, each with its answer.
{"compound": "CC(=O)NC[C@H]1CN(c2ccc(N3C[C@@H]4[C@H](C3)[C@H]4N(C)C(=O)c3ccc(Br)o3)c(F)c2)C(=O)O1 [Compound No. 33]", "experimental.system": "S. pyogenes 19615", "MIC, µg/mL": 0.5}
{"compound": "CC(=O)NC[C@H]1CN(c2ccc(N3CCN(Cc4cccs4)CC3)c(F)c2)C(=O)O1 [Compound No. 12]", "experimental.system": "S. pyogenes 19615", "MIC, µg/mL": 4}
{"compound": "CC(=O)NC[C@H]1CN(c2ccc(N3CC4C(C3)C4N(C)C(=O)c3ccoc3)c(F)c2)C(=O)O1 (stereo partly shown) [Compound No. 32]", "experimental.system": "S. pyogenes 19615", "MIC, µg/mL": 1}
{"compound": "CC(=O)NC[C@H]1CN(c2ccc(N3CCN(C(=O)c4ccc([N+](=O)[O-])s4)CC3)c(F)c2)C(=O)O1.Cl [Compound No. 29]", "experimental.system": "S. pyogenes 19615", "MIC, µg/mL": 1}
{"compound": "CC(=O)NC[C@H]1CN(c2ccc(N3CCN(Cc4ccc(Br)s4)CC3)c(F)c2)C(=O)O1 [Compound No. 27]", "experimental.system": "S. pyogenes 19615", "MIC, µg/mL": 1}
{"compound": "CC(=O)NC[C@H]1CN(c2ccc(N3CCN(Cc4ccc(C5OCCCO5)o4)CC3)c(F)c2)C(=O)O1 [Compound No. 66]", "experimental.system": "S. pyogenes 19615", "MIC, µg/mL": 8}

// moving on: another record for MIC
For reference, reported MIC for COC(=O)Cc1ccc(NC(=O)ON=Cc2ccc(CN3CCN(c4ccc(N5C[C@H](CNC(C)=O)OC5=O)cc4F)CC3)o2)cc1 [Compound No. 61] stands at 8
